Reference for the values: PubChem BioAssay (NCI)

Values of GI50 reported for MDA-MB-435 appear below.

{"columns": ["molecule", "GI50"],
 "data": [
  ["CC1=C(CCCOC(=O)NCCCl)C2=C(C)C3(CC3)[C@@](C)(O)C(=O)C2=C1", "5.07 µM"],
  ["S=C1NCCN1C1=Nc2ccccc2CO1", "> 100 µM"],
  ["C[C@@H]1Cc2c([nH]c3ccccc23)[C@@H](c2c(F)cc(/C=C/C(=O)O)cc2F)N1CC(C)(C)F", "14 µM"]
]}

GI50 of `COc1ccc(-n2cc(-c3ccc(OC)c(OC)c3)[nH]c2=S)cc1Cl` , assay on MDA-MB-435, is > 100 µM

GI50 of `Clc1ccc(Cc2nc3cc4ccccc4cc3[nH]2)cc1` , assay on MDA-MB-435, is 27.8 µM
